Consider the following compounds; for each one, report its AC50.
TEST TARGET: 5-hydroxytryptamine receptor 2A (Homo sapiens, UniProt P28223); further: assay procedure not described here
Sequence (P28223 whole entry): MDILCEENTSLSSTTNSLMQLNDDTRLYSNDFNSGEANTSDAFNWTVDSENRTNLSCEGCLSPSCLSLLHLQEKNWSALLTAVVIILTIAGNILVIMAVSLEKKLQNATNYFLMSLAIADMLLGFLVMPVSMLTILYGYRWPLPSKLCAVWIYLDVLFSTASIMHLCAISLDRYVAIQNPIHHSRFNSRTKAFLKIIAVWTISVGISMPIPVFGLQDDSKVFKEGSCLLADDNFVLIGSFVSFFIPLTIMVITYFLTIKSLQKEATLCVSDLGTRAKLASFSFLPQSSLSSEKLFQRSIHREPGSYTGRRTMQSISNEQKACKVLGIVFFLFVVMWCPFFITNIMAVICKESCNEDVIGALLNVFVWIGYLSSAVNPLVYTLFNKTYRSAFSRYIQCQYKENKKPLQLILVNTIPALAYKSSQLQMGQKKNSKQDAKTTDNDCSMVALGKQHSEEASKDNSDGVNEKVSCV
Type: functional, cell-based

{"columns": ["COMPOUND", "TEST TARGET", "MEASURED QUANTITY", "EXPERIMENTAL RESULT"],
 "data": [
  ["CN(C)[C@@H]1C(O)=C(C(=O)NCN2CCCC2)C(=O)[C@@]2(O)C(O)=C3C(=O)c4c(O)cccc4[C@@](C)(O)[C@H]3C[C@@H]12", "5-hydroxytryptamine receptor 2A (Homo sapiens, UniProt P28223)", "AC50", "> 30 µM"],
  ["CCOC(=O)O[C@]1(C(=O)COC(=O)CC)CC[C@H]2[C@@H]3CCC4=CC(=O)C=C[C@]4(C)[C@H]3[C@@H](O)C[C@@]21C [PREDNICARBATE]", "5-hydroxytryptamine receptor 2A (Homo sapiens, UniProt P28223)", "AC50", "> 10 µM"],
  ["Cn1cnc2c(F)c(Nc3ccc(Br)cc3F)c(C(=O)NOCCO)cc21", "5-hydroxytryptamine receptor 2A (Homo sapiens, UniProt P28223)", "AC50", "> 30 µM"],
  ["CO/N=C(\\C(=O)N[C@@H]1C(=O)N2C(C(=O)[O-])=C(C[n+]3ccc(N)n3CCO)CS[C@H]12)c1csc(N)n1", "5-hydroxytryptamine receptor 2A (Homo sapiens, UniProt P28223)", "AC50", "> 30 µM"],
  ["CC(=O)OCC1=C(C(=O)O)N2C(=O)[C@@H](NC(=O)CSc3ccncc3)[C@H]2SC1", "5-hydroxytryptamine receptor 2A (Homo sapiens, UniProt P28223)", "AC50", "> 10 µM"],
  ["COC(=O)c1ccc2c(c1)NC(=O)/C2=C(\\Nc1ccc(N(C)C(=O)CN2CCN(C)CC2)cc1)c1ccccc1", "5-hydroxytryptamine receptor 2A (Homo sapiens, UniProt P28223)", "AC50", "> 30 µM"],
  ["CCC(=O)O[C@H](CC(=O)O)C[N+](C)(C)C [LEVOCARNITINE PROPIONATE]", "5-hydroxytryptamine receptor 2A (Homo sapiens, UniProt P28223)", "AC50", "> 30 µM"],
  ["CO[C@@H]1[C@@H](OC(N)=O)[C@@H](O)[C@H](Oc2ccc3c(O)c(NC(=O)c4ccc(O)c(CC=C(C)C)c4)c(=O)oc3c2C)OC1(C)C", "5-hydroxytryptamine receptor 2A (Homo sapiens, UniProt P28223)", "AC50", "> 30 µM"]
]}

For each of the compounds below, note its AC50.
1. CNC1(C)C2CCC(C2)C1(C)C (stereo unspecified)
2. O=C(O)c1ccc2nc(-c3cc(Cl)cc(Cl)c3)oc2c1
3. COc1ccc(C(=O)c2ccccc2)c(O)c1
4. C[C@]12CCC(=O)C=C1[C@@H]1C[C@@H]1[C@H]1[C@@H]3[C@@H]4C[C@@H]4[C@@]4(CCC(=O)O4)[C@@]3(C)CC[C@@H]12
5. CCCCCCCC(=O)CC[C@@H]1[C@@H](C/C=C\CCCC(=O)O)[C@@H](O)C[C@H]1O
6. CN(C)CCc1c[nH]c2ccc(CS(=O)(=O)N3CCCC3)cc12

["> 10 µM", "> 30 µM", "> 30 µM", "> 30 µM", "> 30 µM", "13 µM"]

# batch: return AC50 for each of the 2 compounds below
1. OCCOCCN1CCN(C(c2ccccc2)c2ccc(Cl)cc2)CC1 (stereo unspecified) [HYDROXYZINE]
2. COc1cc2c(cc1OC)C1CC(=O)C(CC(C)C)CN1CC2 (stereo unspecified)

1: > 30 µM; 2: > 30 µM

---

Recorded AC50 values (Melanocortin receptor 3 (Homo sapiens)) are given below.

For each entry beneath this line, provide reported AC50.
1. CC(C)(N)Cc1ccccc1
2. C[C@@H](Cc1ccccc1)N(C)Cc1ccccc1
3. COc1ccc(-n2nc(C(N)=O)c3c2C(=O)N(c2ccc(N4CCCCC4=O)cc2)CC3)cc1
4. CN(C)CCC(O)(c1ccccc1)c1ccccc1Cl (stereo unspecified)
5. CC(=O)OCC(=O)[C@@]1(O)CC[C@H]2[C@@H]3CCC4=CC(=O)CC[C@]4(C)[C@@]3(F)[C@@H](O)C[C@@]21C [FLUDROCORTISONE ACETATE]
6. Nc1ccc(S(=O)(=O)Nc2ncccn2)cc1
7. Cc1cn(-c2cc(NC(=O)c3ccc(C)c(Nc4nccc(-c5cnccn5)n4)c3)cc(C(F)(F)F)c2)cn1
8. CNC1(C)C2CCC(C2)C1(C)C (stereo unspecified)

> 30 µM
> 10 µM
> 30 µM
> 10 µM
> 30 µM
> 10 µM
> 30 µM
> 10 µM

Hello, I would appreciate it if you could give AC50 for each entry below.
1. Cc1ccc(S(=O)(=O)NC(=O)N[C@H]2[C@H]3CC[C@@](C)([C@H]2O)C3(C)C)cc1 [GLIBORNURIDE]
2. O=C(C[S+]([O-])Cc1ccco1)NC/C=C\COc1cc(CN2CCCCC2)ccn1 (stereo unspecified)

> 30 µM
> 10 µM

State the recorded AC50 for every item in the following list.
1. CCCCOC(=O)C(=O)Nc1cccc(-c2nnn[nH]2)c1
2. Nc1c2c(nc3ccccc13)CCCC2O (stereo unspecified)
3. CCCCOC(=O)c1ccc(N)cc1

1. > 30 µM
2. > 30 µM
3. > 30 µM

---

# AC50 measurements, system: Muscarinic acetylcholine receptor M4 (Homo sapiens); further: assay procedure not described here
# Sequence (P08173 whole entry): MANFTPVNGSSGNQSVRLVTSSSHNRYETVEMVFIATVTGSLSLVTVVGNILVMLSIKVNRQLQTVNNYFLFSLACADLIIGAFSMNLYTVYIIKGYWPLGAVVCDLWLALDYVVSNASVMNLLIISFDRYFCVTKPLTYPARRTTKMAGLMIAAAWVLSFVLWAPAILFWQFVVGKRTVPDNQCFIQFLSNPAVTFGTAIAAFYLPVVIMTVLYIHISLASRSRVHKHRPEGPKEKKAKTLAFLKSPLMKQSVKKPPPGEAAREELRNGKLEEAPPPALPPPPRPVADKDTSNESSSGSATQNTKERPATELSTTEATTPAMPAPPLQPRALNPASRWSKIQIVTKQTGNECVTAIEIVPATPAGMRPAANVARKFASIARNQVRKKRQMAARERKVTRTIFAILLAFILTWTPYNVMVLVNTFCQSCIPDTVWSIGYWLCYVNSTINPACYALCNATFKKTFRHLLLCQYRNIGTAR

For orientation, consider the following solved cases.
{"columns": ["MOLECULE", "TEST TARGET", "EXPERIMENTAL RESULT"],
 "data": [
  ["CN1C2CCCC1CC(NC(=O)c1nn(C)c3ccccc13)C2 (stereo unspecified)", "Muscarinic acetylcholine receptor M4 (Homo sapiens)", "> 10 µM"],
  ["N=C(N)NC(=O)c1nc(Cl)c(N)nc1N [AMILORIDE]", "Muscarinic acetylcholine receptor M4 (Homo sapiens)", "> 10 µM"],
  ["C[N+]1(C)[C@@H]2C[C@@H](OC(=O)C(O)(c3cccs3)c3cccs3)C[C@H]1[C@@H]1O[C@@H]12 [TIOTROPIUM BROMIDE]", "Muscarinic acetylcholine receptor M4 (Homo sapiens)", "0.0003 µM"],
  ["CCOC(=O)[C@H](CCc1ccccc1)N[C@@H](C)C(=O)N1Cc2ccccc2C[C@H]1C(=O)O", "Muscarinic acetylcholine receptor M4 (Homo sapiens)", "> 10 µM"],
  ["CC(NC(C)(C)C)C(=O)c1cccc(Cl)c1 (stereo unspecified)", "Muscarinic acetylcholine receptor M4 (Homo sapiens)", "> 10 µM"]
]}

Continue with the molecule presented below.
I'd like to know its AC50. The molecule in question is Cc1ccc(-c2ncc(Cl)cc2-c2ccc(S(C)(=O)=O)cc2)cn1 > 10 µM

---

Here we list compounds with their recorded AC50 when tested on Histamine H3 receptor (Homo sapiens, UniProt Q9Y5N1). Further: assay procedure not described here.
Sequence (Q9Y5N1 whole entry): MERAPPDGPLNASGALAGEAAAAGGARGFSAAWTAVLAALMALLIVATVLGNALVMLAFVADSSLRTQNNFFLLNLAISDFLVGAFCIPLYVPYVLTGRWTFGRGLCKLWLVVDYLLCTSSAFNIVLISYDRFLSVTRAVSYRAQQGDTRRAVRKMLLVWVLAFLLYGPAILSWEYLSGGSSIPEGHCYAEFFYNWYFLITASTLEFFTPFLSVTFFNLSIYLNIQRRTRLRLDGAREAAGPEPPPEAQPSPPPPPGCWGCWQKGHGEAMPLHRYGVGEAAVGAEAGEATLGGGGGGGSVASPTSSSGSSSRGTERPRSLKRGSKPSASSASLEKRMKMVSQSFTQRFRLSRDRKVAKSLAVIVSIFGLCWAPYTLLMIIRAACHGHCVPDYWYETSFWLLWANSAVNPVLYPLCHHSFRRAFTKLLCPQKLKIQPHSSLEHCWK

A selection of reference data follows.
{"columns": ["COMPOUND", "TEST TARGET", "AC50"],
 "data": [
  ["O=C1[C@@H]2[C@H]3CC[C@H](C3)[C@@H]2C(=O)N1C[C@@H]1CCCC[C@H]1CN1CCN(c2nsc3ccccc23)CC1 [LURASIDONE]", "Histamine H3 receptor (Homo sapiens, UniProt Q9Y5N1)", "> 30 µM"],
  ["CCN(CC)CCn1c(=O)c(Cc2ccc(OC)cc2)nc2ccccc21 [CAROVERINE]", "Histamine H3 receptor (Homo sapiens, UniProt Q9Y5N1)", "2.38 µM"],
  ["COc1ccc(-c2cc(=S)ss2)cc1 [ANETHOLTRITHION]", "Histamine H3 receptor (Homo sapiens, UniProt Q9Y5N1)", "> 10 µM"],
  ["CC(=O)Oc1cccc2c1C(=O)c1c(OC(C)=O)cc(C(=O)O)cc1C2=O [DIACEREIN]", "Histamine H3 receptor (Homo sapiens, UniProt Q9Y5N1)", "> 30 µM"],
  ["C[C@@H](Cc1ccccc1)N(C)Cc1ccccc1 [BENZPHETAMINE]", "Histamine H3 receptor (Homo sapiens, UniProt Q9Y5N1)", "> 10 µM"]
]}

Answer for every listed entry: what is its AC50? The entries follow.
1. CCOC(=O)C1=C(C)NC(C)=C(C(=O)OC)C1c1cccc(Cl)c1Cl (stereo not drawn) [FELODIPINE]
2. CCCCOC(=O)c1ccc(N)cc1 [BUTAMBEN]
3. O=c1[nH]cc(F)c(=O)[nH]1 [FLUOROURACIL]

> 10 µM
> 30 µM
> 30 µM

// each listed compound needs a value for AC50
1. CC(C)(N)Cc1ccccc1 [PHENTERMINE]
2. CCN(CC)CCCN(c1ccccc1)C1Cc2ccccc2C1 [APRINDINE]
3. CCC(=O)O[C@H](CC(=O)O)C[N+](C)(C)C [LEVOCARNITINE PROPIONATE]
4. CC(=O)Oc1ccccc1C(=O)O [ASPIRIN]
5. CCOC(=O)Nc1ccc(NCc2ccc(F)cc2)nc1N [FLUPIRTINE]

["> 10 µM", "18 µM", "> 30 µM", "> 30 µM", "> 30 µM"]

The values you see were collected from ChEMBL document CHEMBL5291721.
